# credit: patent US11472778B2

# System: HCV replicon R155K variant in Huh7 cells
# Test method notes: microbe, parasite or virus in culture
# Type: cell-based, Hepatitis C virus
# Experimental setup: Hepatitis C virus, Huh-7, read-out: Replicon EC50 (nM) R155K, Table 4
Quantity measured: EC50 (nM)
One number for each entry, in nM.

Worked set:
[
  {
    "Molecule": "CCc1nc2ccc(OC)cc2nc1O[C@@H]1C[C@H]2C(=O)N[C@]3(C(=O)NS(=O)(=O)C4(C)CC4)C[C@H]3/C=C\\CCCCC[C@H](NC(=O)OC3CCCC3)C(=O)N2C1 [Compound 23a]",
    "Tested on": "HCV replicon R155K variant in Huh7 cells",
    "Reading unit": "nM",
    "Quantitative result": 2.07
  },
  {
    "Molecule": "COc1ccc2nc(C(C)C)c(O[C@@H]3C[C@H]4C(=O)N[C@]5(C(=O)NS(=O)(=O)C6CC6)C[C@H]5/C=C\\CCCCC[C@H](NC(=O)OC5CCCC5)C(=O)N4C3)nc2c1 [Compound 22e]",
    "Tested on": "HCV replicon R155K variant in Huh7 cells",
    "Reading unit": "nM",
    "Quantitative result": 7.63
  },
  {
    "Molecule": "CCc1nc2ccc(OC)cc2nc1O[C@@H]1C[C@H]2C(=O)N[C@]3(C(=O)NS(=O)(=O)C4CC4)C[C@H]3/C=C\\CCCCC[C@H](NC(=O)OC(C)(C)C)C(=O)N2C1",
    "Tested on": "HCV replicon R155K variant in Huh7 cells",
    "Reading unit": "nM",
    "Quantitative result": 1.75
  },
  {
    "Molecule": "COc1ccc2nc(C)c(O[C@@H]3C[C@H]4C(=O)N[C@]5(C(=O)NS(=O)(=O)C6CC6)C[C@H]5/C=C\\CCCCC[C@H](NC(=O)OC(C)(C)C)C(=O)N4C3)nc2c1 [Compound 18b]",
    "Tested on": "HCV replicon R155K variant in Huh7 cells",
    "Reading unit": "nM",
    "Quantitative result": 1.17
  }
]

Query string: Provide EC50 value for the following molecule: COc1ccc2nc(Cl)c(O[C@@H]3C[C@H]4C(=O)N[C@]5(C(=O)NS(=O)(=O)C6(C)CC6)C[C@H]5/C=C\CCCCC[C@H](NC(=O)OC5CCCC5)C(=O)N4C3)nc2c1 [Compound 23c]
Result string: 0.56
